System: Staphylococcus aureus
Test: Antimicrobial activity against methicillin-resistant Staphylococcus aureus ATCC 43300 after overnight incubation
Assay type: functional
measured_attribute: MIC50 (µg/mL)
Express it in µg/mL; write the number only.

| smiles_notation | units_label | MIC50 |
| --- | --- | --- |
| C=CC[C@H](NC(=O)[C@@H](CCCNC(=N)N)NC(=O)[C@@H](CCCCN)NC(=O)COc1ccc2ccccc2c1-c1c(OC)ccc2ccccc12)C(=O)OCc1ccccc1.Cl.Cl | µg/mL | 7.8 |
| CC(C)C[C@H](NC(=O)[C@@H](CCCNC(=N)N)NC(=O)[C@@H](CCCCN)NC(=O)COc1ccc2ccccc2c1-c1c(OCCc2ccccc2)ccc2ccccc12)C(=O)OCc1ccccc1.Cl.Cl | µg/mL | 5.2 |

Let us examine a further case.
Identify measured MIC50 corresponding to CCCCCCCCOc1ccc2ccccc2c1-c1c(OCC(=O)N[C@H](CCCCN)C(=O)N[C@H](CCCNC(=N)N)C(=O)N[C@@H](CC(C)C)C(=O)OCc2ccccc2)ccc2ccccc12.Cl.Cl
13

====

System: Staphylococcus aureus
Experiment: Antimicrobial activity against methicillin-resistant Staphylococcus aureus ATCC 43300 after overnight incubation
Type: functional
# maps each entry to its MIC50
Answer with a number only, understood to be in µg/mL.

Check out these entries, answers already filled in.
| smiles_notation | units_label | MIC50 |
| --- | --- | --- |
| C=CC[C@H](NC(=O)[C@@H](CCCNC(=N)N)NC(=O)[C@@H](CCCCN)NC(=O)COc1ccc2ccccc2c1-c1c(OCC(C)C)ccc2ccccc12)C(=O)OCc1ccccc1.Cl.Cl | µg/mL | 1.95 |
| C=CC[C@H](NC(=O)[C@@H](CCCNC(=N)N)NC(=O)[C@@H](CCCCN)NC(=O)COc1ccc2ccccc2c1-c1c(OCCCCC)ccc2ccccc12)C(=O)OCc1ccccc1.Cl.Cl | µg/mL | 3.9 |

// below: MIC50 requested for another compound
Check the records and state MIC50 for CC(C)CCOc1ccccc1-c1ccccc1OCC(=O)N[C@H](CCCCN)C(=O)N[C@H](CCCNC(=N)N)C(=O)N[C@@H](CC(C)C)C(=O)OCc1ccccc1.Cl.Cl
1.95
